# Tested on: HUI77 binding to denatured collagen IV
# measurementNotes: Competition ELISA: synthetic peptides blocking HUI77 binding to heat denatured collagen IV
# Parameters: species or system human
# conditionDetails: peptide inhibitor concentration 100 μM; average of two studies
# Experimental: The ELISA was conducted as follows: wells of a 96-well microtiter plate (Immulon, 4 HBX flat-bottomed, Thermo Electron Corporation, Waltham, Mass.) were coated with 100 μL/well of dn-collagen IV at 10 μg/mL in Phosphate Buffered Saline (PBS) overnight at 4° C. […] Tetramethylbenzidine (TMB) substrate (100 μL; Pierce Chemicals)) was added to wells and the plates were allowed to develop at room temperature for 15 minutes in the dark. […] A plates were read at 450 nm within five minutes of adding the H2SO4. […]
Square brackets hold non-standard residues; d marks the D form. Ends that are not written are not given here. Hyp = O=C(O)[C@@H]1C[C@@H](O)CN1
Would you mind labelling by % INHIBITION OF BINDING OF HUI77 TO DENATURED COLLAGEN IV? At or over 10% is TRUE, under is FALSE.

Reported % INHIBITION OF BINDING OF HUI77 TO DENATURED COLLAGEN IV reaches at least 10% for GPPGPPGP (GPXGPXGP; MOD_RES (3) Hydroxyproline; MOD_RES (6) Hydroxyproline) [SEQ ID NO: 31] ?
TRUE

Reported % INHIBITION OF BINDING OF HUI77 TO DENATURED COLLAGEN IV reaches at least 10% for CTWPRHHTTDALL [SEQ ID NO: 39, reference compound] ?
FALSE

Reported % INHIBITION OF BINDING OF HUI77 TO DENATURED COLLAGEN IV reaches at least 10% for PGPPGPPGP (PGP[Hyp]GP[Hyp]GP) [SEQ ID NO: 29] ?
TRUE

Reported % INHIBITION OF BINDING OF HUI77 TO DENATURED COLLAGEN IV reaches at least 10% for PGPPGPPGPY (PGP[Hyp]GP[Hyp]GPY) [SEQ ID NO: 28] ?
TRUE

Next:
Reported % INHIBITION OF BINDING OF HUI77 TO DENATURED COLLAGEN IV reaches at least 10% for LPGPPGPPGP (LPGP[Hyp]GP[Hyp]GP) [SEQ ID NO: 20] ?
TRUE

###

# Tested on: HUI77 binding to denatured collagen IV
# measurementNotes: Competition ELISA: synthetic peptides blocking HUI77 binding to heat denatured collagen IV
# Design: species or system human
# conditionDetails: peptide inhibitor concentration 100 μM; average of two studies
Square brackets hold non-standard residues; d marks the D form. Ends that are not written are not given here. Hyp = O=C(O)[C@@H]1C[C@@H](O)CN1
reportedMetric: % INHIBITION OF BINDING OF HUI77 TO DENATURED COLLAGEN IV (%)
Give the number; % is assumed, so skip it.

Could you share which % INHIBITION OF BINDING OF HUI77 TO DENATURED COLLAGEN IV value was measured for PGAKGLPGP ([Hyp]GAKGLPGP) [SEQ ID NO: 17] ?
10.5

Could you share which % INHIBITION OF BINDING OF HUI77 TO DENATURED COLLAGEN IV value was measured for LPGTPG (L[Hyp]GT[Hyp]G) [SEQ ID NO: 27] ?
4.5
